Taken from PubChem BioAssay (NCATS).

- Assay System: Cytochrome P450 1A2 (Homo sapiens)
- Assay Overview: p450-cyp1a2 (AID 410)
- Reported Conditions: recombinant CYP1A2, luciferin-ME demethylation, luminescence; series mostly up to 57 µM
Results filed as inconclusive are left out. Calls of active or inactive are those of the source. Calls follow the shape of the full dose curve.
Just give me one of these, please: 1 (active), 0 (inactive)

Write down the call the test reported for this compound. Item: Nc1ncnc2c1ncn2[C@@H]1O[C@@H](COP(=O)(O)OP(=O)(O)OP(=O)(O)OP(=O)(O)OC[C@@H]2O[C@@H](n3cnc4c(N)ncnc43)[C@@H](O)[C@H]2O)[C@H](O)[C@@H]1O
0

# lookup: test call for CCCC[C@@H]1C[C@H]1C(NC(=O)c1ccccc1)c1ccc(-c2ccccc2)cc1 (stereo partly specified)
1

Please share the test call associated with COC(=O)[C@@]1(Cc2ccc(F)cc2)[C@H]2c3cc(C(=O)N4CCCC4)n(Cc4ccc(OC(F)(F)F)cc4)c3C[C@H]2CN1C(=O)c1ccccc1 .
0

Field: outcome | Entry: CC(C)C[C@@H](CC(=O)N[C@@H](CCC(=O)O)CC(=O)O)NC(=O)[C@@H]1CCCC[C@H]1NC(=O)C[C@@H](NC(=O)C[C@H](Cc1c[nH]c2ccccc12)NC(=O)[C@@H]1CNCC[C@H]1N)C(C)C
0

Recorded call for COc1ccc(-c2coc3ccc(O[C@@H]4O[C@@H](COC(C)=O)[C@@H](OC(C)=O)[C@@H](OC(C)=O)[C@H]4OC(C)=O)cc3c2=O)cc1 ?
0

Which outcome was entered for the compound COc1ccc(-c2coc3cc(O[C@@H]4O[C@@H](CO)[C@@H](O)[C@@H](O)[C@H]4O)cc(O)c3c2=O)cc1 in this test?
0

* * *

I'd be grateful if you could share measured activity, negative = inhibition for these entries.
- Assay Overview: Stat Signaling Pathway (AID 446);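 also: ME-180 cervical cancer cells given 40 pM IL-6 alongside compound; SIE-controlled beta-lactamase reporter measured as 460/530 nm FRET emission ratio; % is scaled to controls: 0 for no effect and ±100 for the full control effect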
- Reported Conditions: ME-180 (cervical carcinoma) SIE beta-lactamase reporter, IL-6 stimulated, 5 h; at 17.2 µM (top of the series) unless noted
Records with an inconclusive call do not appear.
Number in %, nothing else.

Consider the compound shown here: O=C(c1cccs1)N1CCC(N2CCN(c3ccccc3)CC2)CC1 What is its recorded activity, negative = inhibition?
-2.08

So what does the record say about activity, negative = inhibition for CCC1SC2=NC(C)=C(C(=O)OCCOC)C(c3ccc(C(=O)OC)cc3)N2C1=O (stereo not drawn) ?
-2.24

What value of activity, negative = inhibition has been recorded for this entry: CSc1nnc(C)c(=O)[nH]1
14.8

For the compound shown here, CC1(C)CC(=O)C=C(NCCO)C1 , give the reported activity, negative = inhibition.
12.6

Please look up its activity, negative = inhibition: CNC(=O)CC(C(=O)O)c1ccc(OC(C)C)cc1 (stereo not drawn)
5.76

Find the recorded activity, negative = inhibition belonging to COc1cccc(Cn2c(NCc3ccccn3)nc3c2c(=O)n(C)c(=O)n3C)c1 and report it.
-15.6

Look up activity, negative = inhibition: O=C(C1CCCCC1)N1CCCn2c1nc1ccccc12
4.38

Need activity, negative = inhibition, item COc1ccccc1N1CCN(C2CCN(C(=O)c3cc(OC)c(OC)c(OC)c3)CC2)CC1
10.4

# activity, negative = inhibition lookup, item Cc1cc(N2C(=O)C(=O)/C(=C(/O)c3ccccc3)C2c2cccc(Br)c2)no1 (stereo not drawn)
-23.1

Fill in: activity, negative = inhibition of CCOC(=O)c1[nH]c2ccc(Br)cc2c1NC(=O)CCN1CCC(C(=O)OCC)CC1 is ___
-11

Using the record for COc1cc(C)nc(Oc2ccc(=O)n(C)n2)n1 , report its activity, negative = inhibition.
1.84

Which value of activity, negative = inhibition has been reported for CCCOc1ccc(/C(O)=C2/C(=O)C(=O)N(CCCN3CCOCC3)C2c2ccncc2)cc1 (stereo not drawn) in the records?
5.77

# lookup: activity, negative = inhibition of Cc1cc(C)c2c(N)c(C(=O)c3ccccc3)oc2n1
-8.9

// returns reported activity, negative = inhibition for input COc1ccc(CCNc2oc(COc3ccccc3)nc2C#N)cc1
-23.3

Query: activity, negative = inhibition; subject: N#Cc1c(N2CCCCC2)nc(N2CCCCC2)c2c1CCN(Cc1ccccc1)C2
17.8

I'd like to know its activity, negative = inhibition. The compound in question is CS(=O)(=O)CCC(C(=O)n1nnc2ccccc21)N1C(=O)c2ccccc2C1=O (stereo not drawn)
-20.7

Requested read-out: activity, negative = inhibition. Entry: CCOc1ccc(C2C=C(c3ccccc3)Nc3ncnn32)cc1 (stereo not drawn)
-2.5

What does the data say about its activity, negative = inhibition? Entry: O=C(O)C1[C@H]2C(=O)N(Cc3cccs3)C[C@]23C=C[C@H]1O3 (stereo partly drawn)
2.6

Name the reported activity, negative = inhibition value associated with the compound O=C(C1=C(O)C(=O)N(CCCN2CCOCC2)C1c1ccccn1)c1cccs1 (stereo not drawn)
-0.582

Record request: activity, negative = inhibition value, item Cc1cc(O)ccc1-c1cnc2ccccc2n1
21.5

Recorded activity, negative = inhibition for O=C(Nn1cnnc1)C(c1ccccc1)c1ccccc1 , please?
3.83

What measured activity, negative = inhibition goes with Cc1cccc(OCC(=O)N2CCC(N3CCCCCC3)CC2)c1 ?
5.82

Name the reported activity, negative = inhibition value associated with the compound CCOc1ccc2c(C)nc(NC3=NC(C)(C)C=C(C)N3)nc2c1
25.6

Would you mind telling me what activity, negative = inhibition value was observed for Oc1ccccc1-c1nc(NCCN2CCOCC2)c2ccccc2n1 ?
-12.5

// activity, negative = inhibition lookup, key: CCN(CC)c1ccc2c(C)c(-c3ccc(N)cc3)c(=O)oc2c1
14.8

Suppose we examine the compound N#Cc1nc(-c2cccs2)oc1NCc1ccccc1 ; what activity, negative = inhibition value has been reported?
-1.04

I have this compound here, CCCCCC(=O)N1CC2(C)CN(C(=O)CCCCC)CC(C)(C1)C2=O , and I need its recorded activity, negative = inhibition.
5.3

Look up activity, negative = inhibition for this compound: CN1CCc2c(sc3c2C(=O)NC(c2ccco2)N3)C1 (stereo not drawn)
23.6

Quick one: activity, negative = inhibition of O=c1cc(O)nc2n1CCCS2 ?
-1.13

I have this compound here, O=C(O)CC(NCc1ccco1)C(=O)OCC1CCCO1 (stereo not drawn) , and I need its recorded activity, negative = inhibition.
-1.58

What activity, negative = inhibition value was documented for this compound, COc1cccc(-c2nc(N3CCCCC3C)c3ccccc3n2)c1O (stereo not drawn) ?
-21.7

Any idea what its activity, negative = inhibition is? The compound is COc1cc(C)nc(Oc2ccc(OCCOc3ccc(C)cc3)nn2)n1
-5.96

Quick check: activity, negative = inhibition of CCc1[nH]c(=O)c(C#N)c2c1CCCC2 ?
4.68

Please look up its activity, negative = inhibition: COc1cc(-c2nn3c(-c4ccccn4)nnc3s2)cc(OC)c1OC
1.47

I have this compound here, N#CCCSc1nc(N2CCOCC2)c2c(c1C#N)CCCC2 , and I need its recorded activity, negative = inhibition.
-12.4

Data request, read-out activity, negative = inhibition, for CCCCN(CCCC)C(=O)CSc1nnc2n(C)c(=O)c3c4c(sc3n12)CCCC4
-16.8

Suppose we examine the compound CC(=O)c1cc(CN2CCCCC2)cc(OC(C)C)c1 ; what activity, negative = inhibition value has been reported?
13.1

Please report the recorded activity, negative = inhibition for CCCCCOc1ccccc1C(=O)NCC(=O)O .
9.43

Item under review: CC1(C)Cc2c(c(N3CCOCC3)nc3snc(Br)c23)CO1 . Reported activity, negative = inhibition?
13.2

Which value of activity, negative = inhibition has been reported for CN(C)CC(O)COc1ccc(-c2ccc(C#N)cc2)cc1 (stereo not drawn) in the records?
2.27

Which activity, negative = inhibition is listed for CC(C)OC(=O)C(CC(=O)O)NCc1ccccc1 (stereo not drawn) ?
5.04

State the recorded activity, negative = inhibition for this entry: N=c1c2c(-c3ccccc3)c(-c3ccccc3)n(Cc3ccccc3)c2ncn1CCCn1ccnc1
9.95

So what does the record say about activity, negative = inhibition for Clc1ccc(-n2ncc3c(N4CCCC4)ncnc32)cc1 ?
-0.254

Could you share which activity, negative = inhibition value was measured for Cc1[nH]nc2cn[nH]c12 ?
4.46

Fill in the blank: the reported activity, negative = inhibition of c1ccc(SCc2nc3ccccc3[nH]2)nc1 is ____.
8.86

State the recorded activity, negative = inhibition for this entry: CNC(=O)c1cc2ccccc2o1
2.75

For the compound CN(C)C=C1C(=O)c2ccccc2C1=O , what activity, negative = inhibition is on record?
1.64

Which activity, negative = inhibition reading was recorded for the compound Cc1ccc(NC(=O)CSc2nnc(-c3ccco3)c(-c3ccco3)n2)cc1 ?
-23.9
